Recorded protein stability index, one value per entry.
B1: FCHSD1 (parent)
chain: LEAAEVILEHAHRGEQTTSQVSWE

variants of: B1; experiment: protein stability index of a GFP-peptide fusion (GPS, HEK-293T) (PSI 1-6); higher = more stable; settings: c terminus: a fixed tail appended;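 note: lentivirally expressed fusions sorted by FACS into six bins by GFP to DsRed ratio, PSI derived from sequencing read proportions per bin multiplied by bin number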

- seqText: "LEAAEVILNHAHRGEQTTSQVSWE [E9N]"
  protein stability index: 3.8
- seqText: "LEAAEVILEHAHRGEQTGSQVSWE [T18G]"
  protein stability index: 4.38
- seqText: "LEAAEVILEHAHRGEQTTSQLSWE [V21L]"
  protein stability index: 4.58
- seqText: "LEAAEVILEHAERGEQTTSQVSWE [H12E]"
  protein stability index: 4.92
- seqText: "LEAAEVILEHAHRGEQTTSQVSDE [W23D]"
  protein stability index: 5.55
- seqText: "LEAAEVILEHAHRGEQTTSVVSWE [Q20V]"
  protein stability index: 4.02
- seqText: "LEAAEVILVHAHRGEQTTSQVSWE [E9V]"
  protein stability index: 2.5
- seqText: "LEAAEVILEHAHQGEQTTSQVSWE [R13Q]"
  protein stability index: 4.41
- seqText: "LEAAEVILEHAHRGEQTTSQVLWE [S22L]"
  protein stability index: 3.79
- seqText: "LEAAEVILENAHRGEQTTSQVSWE [H10N]"
  protein stability index: 3.78
- seqText: "LEAAEVILEHAHRGEQTTSIVSWE [Q20I]"
  protein stability index: 4.42
- seqText: "LEAAEVILEHAHRGEQTTSQVSHE [W23H]"
  protein stability index: 5.61
- seqText: "LEAAEVILEHAHRGEQTTVQVSWE [S19V]"
  protein stability index: 2.37
- seqText: "LEAAELILEHAHRGEQTTSQVSWE [V6L]"
  protein stability index: 3.95
- seqText: "LEAAEVILIHAHRGEQTTSQVSWE [E9I]"
  protein stability index: 1.86
- seqText: "LEAAEVILEHAHRGEQTTSQVKWE [S22K]"
  protein stability index: 4.93
- seqText: "LEAAEVILEHAHRGEQTTSQVSNE [W23N]"
  protein stability index: 3.89
- seqText: "LEAAEVMLEHAHRGEQTTSQVSWE [I7M]"
  protein stability index: 4.84
- seqText: "PEAAEVILEHAHRGEQTTSQVSWE [L1P]"
  protein stability index: 5.11
- seqText: "LEAAEVILEHAHRGEQHTSQVSWE [T17H]"
  protein stability index: 3.99
- seqText: "LEAAEVILEHAHRGERTTSQVSWE [Q16R]"
  protein stability index: 4.14
- seqText: "LEAAEVILEHAHRGEQTTSQVEWE [S22E]"
  protein stability index: 4.68
